assay_procedure: Plasma pharmacokinetics, single ascending dose
Type: in vivo, human
run_conditions: human, plasma, oral, 400 mg
measured_endpoint: AUC(0-inf)

Which AUC(0-inf) is reported for this molecule? N#CN1C[C@H](n2nc(-c3ccc(Oc4ccc(Cl)cn4)cc3)c(C(N)=O)c2N)CCC12CC2
11600 ng·h/mL

###

assay_procedure: Plasma pharmacokinetics, single ascending dose
Assay type: in vivo, human
run_conditions: human, plasma, oral, 800 mg
measured_endpoint: Vd/F (L)
Respond with the bare value in L.

Which Vd/F is reported for this compound? N#CN1C[C@H](n2nc(-c3ccc(Oc4ccc(Cl)cn4)cc3)c(C(N)=O)c2N)CCC12CC2
1400

###

assay_procedure: Plasma pharmacokinetics, single ascending dose
Assay type: in vivo, human
run_conditions: human, plasma, oral
measured_endpoint: half-life

Which half-life is reported for this compound? N#CN1C[C@H](n2nc(-c3ccc(Oc4ccc(Cl)cn4)cc3)c(C(N)=O)c2N)CCC12CC2 [SN1011]
15.5 to 21.8 h

###

assay_procedure: Plasma pharmacokinetics, single ascending dose
Assay type: in vivo, human
run_conditions: human, plasma, oral, 800 mg
measured_endpoint: Tmax (h)
Respond with the bare value in h.

Which Tmax is reported for this molecule? N#CN1C[C@H](n2nc(-c3ccc(Oc4ccc(Cl)cn4)cc3)c(C(N)=O)c2N)CCC12CC2
5

###

assay_procedure: Plasma pharmacokinetics, multiple ascending doses
Assay type: in vivo, human
run_conditions: human, plasma, oral, 200 mg, T max, MAD 200 mg q.d., Day 1; median (min, max)
measured_endpoint: Tmax

Which Tmax is reported for this molecule? N#CN1C[C@H](n2nc(-c3ccc(Oc4ccc(Cl)cn4)cc3)c(C(N)=O)c2N)CCC12CC2
3 h

###

assay_procedure: Plasma pharmacokinetics, multiple ascending doses
Type: in vivo, human
run_conditions: human, plasma, oral, 400 mg
measured_endpoint: half-life
Quote the value and follow it with the unit of measurement.

Which half-life is reported for this molecule? N#CN1C[C@H](n2nc(-c3ccc(Oc4ccc(Cl)cn4)cc3)c(C(N)=O)c2N)CCC12CC2
19 h

###

assay_procedure: Plasma pharmacokinetics, multiple ascending doses
Type: in vivo, human
run_conditions: human, plasma, oral, 200 mg
measured_endpoint: Vd/F (L)
Respond with the bare value in L.

Which Vd/F is reported for this molecule? N#CN1C[C@H](n2nc(-c3ccc(Oc4ccc(Cl)cn4)cc3)c(C(N)=O)c2N)CCC12CC2
728

###

assay_procedure: Plasma pharmacokinetics, single ascending dose
Format: in vivo, human
run_conditions: human, plasma, po, 400 mg
measured_endpoint: Cmax (ng/mL)
Respond with the bare value in ng/mL.

Which Cmax is reported for this compound? N#CN1C[C@H](n2nc(-c3ccc(Oc4ccc(Cl)cn4)cc3)c(C(N)=O)c2N)CCC12CC2
487

###

assay_procedure: Plasma pharmacokinetics, multiple ascending doses
Format: in vivo, human
run_conditions: human, plasma, oral, 600 mg, AUC0-t, MAD 600 mg q.d., Day 1; mean ± SD
measured_endpoint: AUC(0-t) (ng·h/mL)
Respond with the bare value in ng·h/mL.

Which AUC(0-t) is reported for this molecule? N#CN1C[C@H](n2nc(-c3ccc(Oc4ccc(Cl)cn4)cc3)c(C(N)=O)c2N)CCC12CC2
12200

###

assay_procedure: Plasma pharmacokinetics, multiple ascending doses
Assay type: in vivo, human
run_conditions: human, plasma, oral, 200 mg
measured_endpoint: concentration at 10 day (ng/mL)
Respond with the bare value in ng/mL.

Which concentration at 10 day is reported for this compound? N#CN1C[C@H](n2nc(-c3ccc(Oc4ccc(Cl)cn4)cc3)c(C(N)=O)c2N)CCC12CC2
257

###

assay_procedure: Plasma pharmacokinetics, multiple ascending doses
Format: in vivo, human
run_conditions: human, plasma, oral, T max, MAD, steady-state conditions, across 200-600 mg q.d.
measured_endpoint: Tmax

Which Tmax is reported for this compound? N#CN1C[C@H](n2nc(-c3ccc(Oc4ccc(Cl)cn4)cc3)c(C(N)=O)c2N)CCC12CC2
2.5 to 3.5 h

###

assay_procedure: Plasma pharmacokinetics, multiple ascending doses
Type: in vivo, human
run_conditions: human, plasma, oral, 600 mg, C max, MAD 600 mg q.d., Day 10; mean ± SD
measured_endpoint: Cmax (ng/mL)
Respond with the bare value in ng/mL.

Which Cmax is reported for this compound? N#CN1C[C@H](n2nc(-c3ccc(Oc4ccc(Cl)cn4)cc3)c(C(N)=O)c2N)CCC12CC2
1600

###

assay_procedure: Plasma pharmacokinetics, multiple ascending doses
Format: in vivo, human
run_conditions: human, plasma, oral, 400 mg, T max, MAD 400 mg q.d., Day 1; median (min, max)
measured_endpoint: Tmax (h)
Respond with the bare value in h.

Which Tmax is reported for this compound? N#CN1C[C@H](n2nc(-c3ccc(Oc4ccc(Cl)cn4)cc3)c(C(N)=O)c2N)CCC12CC2
4

###

assay_procedure: Plasma pharmacokinetics, single ascending dose
Type: in vivo, human
run_conditions: human, plasma, oral, 600 mg
measured_endpoint: Tmax (h)
Respond with the bare value in h.

Which Tmax is reported for this molecule? N#CN1C[C@H](n2nc(-c3ccc(Oc4ccc(Cl)cn4)cc3)c(C(N)=O)c2N)CCC12CC2 [SN1011]
4

###

assay_procedure: Plasma pharmacokinetics, single ascending dose
Type: in vivo, human
run_conditions: human, plasma, oral, 400 mg
measured_endpoint: half-life (h)
Respond with the bare value in h.

Which half-life is reported for this molecule? N#CN1C[C@H](n2nc(-c3ccc(Oc4ccc(Cl)cn4)cc3)c(C(N)=O)c2N)CCC12CC2
19.3

###

assay_procedure: Plasma pharmacokinetics, single ascending dose
Type: in vivo, human
run_conditions: human, plasma, oral, 600 mg
measured_endpoint: Vd/F
Quote the value and follow it with the unit of measurement.

Which Vd/F is reported for this molecule? N#CN1C[C@H](n2nc(-c3ccc(Oc4ccc(Cl)cn4)cc3)c(C(N)=O)c2N)CCC12CC2
1060 L

###

assay_procedure: Plasma pharmacokinetics, multiple ascending doses
Assay type: in vivo, human
run_conditions: human, plasma, oral, 600 mg
measured_endpoint: AUC (ng·h/mL)
Respond with the bare value in ng·h/mL.

Which AUC is reported for this compound? N#CN1C[C@H](n2nc(-c3ccc(Oc4ccc(Cl)cn4)cc3)c(C(N)=O)c2N)CCC12CC2 [SN1011]
22000

###

assay_procedure: Plasma pharmacokinetics, single ascending dose
Format: in vivo, human
run_conditions: human, plasma, oral, 100 mg
measured_endpoint: half-life
Quote the value and follow it with the unit of measurement.

Which half-life is reported for this molecule? N#CN1C[C@H](n2nc(-c3ccc(Oc4ccc(Cl)cn4)cc3)c(C(N)=O)c2N)CCC12CC2
16.5 h

###

assay_procedure: Plasma pharmacokinetics, multiple ascending doses
Type: in vivo, human
run_conditions: human, plasma, oral, 600 mg, T max, MAD 600 mg q.d., Day 1; median (min, max)
measured_endpoint: Tmax (h)
Respond with the bare value in h.

Which Tmax is reported for this molecule? N#CN1C[C@H](n2nc(-c3ccc(Oc4ccc(Cl)cn4)cc3)c(C(N)=O)c2N)CCC12CC2
4

###

assay_procedure: Plasma pharmacokinetics, multiple ascending doses
Assay type: in vivo, human
run_conditions: human, plasma, oral, 400 mg, C max, MAD 400 mg q.d., Day 10; mean ± SD
measured_endpoint: Cmax (ng/mL)
Respond with the bare value in ng/mL.

Which Cmax is reported for this molecule? N#CN1C[C@H](n2nc(-c3ccc(Oc4ccc(Cl)cn4)cc3)c(C(N)=O)c2N)CCC12CC2 [SN1011]
1070

###

assay_procedure: Plasma pharmacokinetics, multiple ascending doses
Type: in vivo, human
run_conditions: human, plasma, oral, 600 mg
measured_endpoint: Vd/F (L)
Respond with the bare value in L.

Which Vd/F is reported for this compound? N#CN1C[C@H](n2nc(-c3ccc(Oc4ccc(Cl)cn4)cc3)c(C(N)=O)c2N)CCC12CC2
872

###

assay_procedure: Plasma pharmacokinetics, multiple ascending doses
Assay type: in vivo, human
run_conditions: human, plasma, oral, 600 mg
measured_endpoint: concentration at 10 day (µg/mL)
Respond with the bare value in µg/mL.

Which concentration at 10 day is reported for this compound? N#CN1C[C@H](n2nc(-c3ccc(Oc4ccc(Cl)cn4)cc3)c(C(N)=O)c2N)CCC12CC2
0.531

###

assay_procedure: Plasma pharmacokinetics, single ascending dose
Format: in vivo, human
run_conditions: human, plasma, oral, 600 mg, AUC0-t, SAD 600 mg; mean ± SD
measured_endpoint: AUC(0-t)
Quote the value and follow it with the unit of measurement.

Which AUC(0-t) is reported for this molecule? N#CN1C[C@H](n2nc(-c3ccc(Oc4ccc(Cl)cn4)cc3)c(C(N)=O)c2N)CCC12CC2 [SN1011]
16400 ng·h/mL

###

assay_procedure: Plasma pharmacokinetics, multiple ascending doses
Format: in vivo, human
run_conditions: human, plasma, oral, 200 mg, AUC0-t, MAD 200 mg q.d., Day 10; mean ± SD
measured_endpoint: AUC(0-t) (ng·h/mL)
Respond with the bare value in ng·h/mL.

Which AUC(0-t) is reported for this compound? N#CN1C[C@H](n2nc(-c3ccc(Oc4ccc(Cl)cn4)cc3)c(C(N)=O)c2N)CCC12CC2 [SN1011]
17300
